- Test system: Candida albicans ATCC 62376
- Test Description: MIC by agar dilution method
- Format: cell-based
- Test Settings: ATCC62376; Table 6c; V Candida albicans ATCC 62376; agar dilution; read-out: MIC V
- Description: Minimal inhibitory concentrations (MICs) were determined by an agar dilution method. The test compounds were serially diluted in MeOH and 0.2 mL portions were mixed with 20 mL of molten, cooled Sabouraud dextrose agar (Difco). Yeast cell inoculum was prepared by growing cultures on Sabouraud dextrose agar for 18 hours at 32° C. and suspending the cells in phosphate buffered saline. Filamentous fungi were grown under the same conditions for 4 days to obtain spores. […]
Reported values of MIC for individual entries
Endpoint Label: MIC (µg/mL)

{"Compound": "CCCCC/C=C/C=C/[C@@H](O)C/C=C/C=C/C(=O)O[C@@H]1[C@@H](O)[C@H](c2c(O)cc(O)cc2CO)O[C@H](CO)[C@H]1O[C@@H]1O[C@H](COC(=O)c2ccc(-c3ccc(OC)cc3)cc2)[C@H](O)[C@H](O)[C@H]1O[C@@H]1O[C@H](CO)[C@H](O)[C@H](O)[C@H]1O", "Result Number": 0.78}
{"Compound": "CCCCC/C=C/C=C/[C@@H](O)C/C=C/C=C/C(=O)O[C@@H]1[C@@H](O)[C@H](c2c(O)cc(O)cc2CO)O[C@H](CO)[C@H]1O[C@@H]1O[C@H](COC(=O)c2ccc(-c3ccc4ccccc4c3)cc2)[C@H](O)[C@H](O)[C@H]1O[C@@H]1O[C@H](CO)[C@H](O)[C@H](O)[C@H]1O", "Result Number": 1.56}
{"Compound": "CCCCC/C=C/C=C/[C@@H](O)C/C=C/C=C/C(=O)O[C@@H]1[C@@H](O)[C@H](c2c(O)cc(O)cc2CO)O[C@H](CO)[C@H]1O[C@@H]1O[C@H](COC(=O)/C=C/c2ccccc2)[C@H](O)[C@H](O)[C@H]1O[C@@H]1O[C@H](CO)[C@H](O)[C@H](O)[C@H]1O", "Result Number": 12.5}
{"Compound": "CCCCC/C=C/C=C/[C@@H](O)C/C=C/C=C/C(=O)O[C@@H]1[C@@H](O)[C@H](c2c(O)cc(O)cc2CO)O[C@H](CO)[C@H]1O[C@@H]1O[C@H](COC(=O)CCCCCCCCC)[C@H](O)[C@H](O)[C@H]1O[C@@H]1O[C@H](CO)[C@H](O)[C@H](O)[C@H]1O", "Result Number": 12.5}
{"Compound": "CCCCC/C=C/C=C/[C@@H](O)C/C=C/C=C/C(=O)O[C@@H]1[C@@H](O)[C@H](c2c(O)cc(O)cc2CO)O[C@H](CO)[C@H]1O[C@@H]1O[C@H](COC(=O)c2ccc(CCCC)cc2)[C@H](O)[C@H](O)[C@H]1O[C@@H]1O[C@H](CO)[C@H](O)[C@H](O)[C@H]1O", "Result Number": 1.56}
{"Compound": "CCCCC/C=C/C=C/[C@@H](O)C/C=C/C=C/C(=O)O[C@@H]1[C@@H](O)[C@H](c2c(O)cc(O)cc2CO)O[C@H](CO)[C@H]1O[C@@H]1O[C@H](COC(=O)c2cccc3ccccc23)[C@H](O)[C@H](O)[C@H]1O[C@@H]1O[C@H](CO)[C@H](O)[C@H](O)[C@H]1O", "Result Number": 6.25}
{"Compound": "CCCCCC=CC=CC(=O)OCC1OC(OC2C(CO)OC(c3c(O)cc(O)cc3CO)C(O)C2OC(=O)C=CC=CCC(O)C=CC=CCCCCC)C(OC2OC(CO)C(O)C(O)C2O)C(O)C1O (stereo not drawn)", "Result Number": 1.56}
{"Compound": "CCCCC/C=C/C=C/[C@@H](O)C/C=C/C=C/C(=O)O[C@@H]1[C@@H](O)[C@H](c2c(O)cc(O)cc2CO)O[C@H](CO)[C@H]1O[C@@H]1O[C@H](COC(=O)c2ccc(-c3ccc(OCc4ccccc4)cc3)cc2)[C@H](O)[C@H](O)[C@H]1O[C@@H]1O[C@H](CO)[C@H](O)[C@H](O)[C@H]1O", "Result Number": 1.56}
{"Compound": "CCCCC/C=C/C=C/[C@@H](O)C/C=C/C=C/C(=O)O[C@@H]1[C@@H](O)[C@H](c2c(O)cc(O)cc2CO)O[C@H](CO)[C@H]1O[C@@H]1O[C@H](COC(=O)c2ccc3ccccc3c2)[C@H](O)[C@H](O)[C@H]1O[C@@H]1O[C@H](CO)[C@H](O)[C@H](O)[C@H]1O", "Result Number": 3.12}
{"Compound": "CCCCC/C=C/C=C/[C@@H](O)C/C=C/C=C/C(=O)O[C@@H]1[C@@H](O)[C@H](c2c(O)cc(O)cc2CO)O[C@H](CO)[C@H]1O[C@@H]1O[C@H](COC(=O)c2ccc(-c3ccc(OCCCCCCCC)cc3)cc2)[C@H](O)[C@H](O)[C@H]1O[C@@H]1O[C@H](CO)[C@H](O)[C@H](O)[C@H]1O", "Result Number": 12.5}
{"Compound": "CCCCC/C=C/C=C/[C@@H](O)C/C=C/C=C/C(=O)O[C@@H]1[C@@H](O)[C@H](c2c(O)cc(O)cc2CO)O[C@H](CO)[C@H]1O[C@@H]1O[C@H](COC(=O)/C=C/c2cc(C(C)(C)C)cc(C(C)(C)C)c2)[C@H](O)[C@H](O)[C@H]1O[C@@H]1O[C@H](CO)[C@H](O)[C@H](O)[C@H]1O", "Result Number": 6.25}
{"Compound": "CCCCC/C=C/C=C/[C@@H](O)C/C=C/C=C/C(=O)O[C@@H]1[C@@H](O)[C@H](c2c(O)cc(O)cc2CO)O[C@H](CO)[C@H]1O[C@@H]1O[C@H](COC(=O)c2ccc(-c3ccc4c(c3)OCO4)cc2)[C@H](O)[C@H](O)[C@H]1O[C@@H]1O[C@H](CO)[C@H](O)[C@H](O)[C@H]1O", "Result Number": 1.56}
{"Compound": "CCCCC/C=C/C=C/[C@@H](O)C/C=C/C=C/C(=O)O[C@@H]1[C@@H](O)[C@H](c2c(O)cc(O)cc2CO)O[C@H](CO)[C@H]1O[C@@H]1O[C@H](COC(=O)c2ccc(-c3ccc(OC(C)C)cc3)cc2)[C@H](O)[C@H](O)[C@H]1O[C@@H]1O[C@H](CO)[C@H](O)[C@H](O)[C@H]1O", "Result Number": 0.78}
{"Compound": "CCCCC/C=C/C=C/[C@@H](O)C/C=C/C=C/C(=O)O[C@@H]1[C@@H](O)[C@H](c2c(O)cc(O)cc2CO)O[C@H](CO)[C@H]1O[C@@H]1O[C@H](COC(=O)c2ccc(-c3ccc(CC)cc3)cc2)[C@H](O)[C@H](O)[C@H]1O[C@@H]1O[C@H](CO)[C@H](O)[C@H](O)[C@H]1O", "Result Number": 0.39}
{"Compound": "CCCCC/C=C/C=C/[C@@H](O)C/C=C/C=C/C(=O)O[C@@H]1[C@@H](O)[C@H](c2c(O)cc(O)cc2CO)O[C@H](CO)[C@H]1O[C@@H]1O[C@H](COC(=O)c2cccc(-c3ccc(-c4ccccc4)cc3)c2)[C@H](O)[C@H](O)[C@H]1O[C@@H]1O[C@H](CO)[C@H](O)[C@H](O)[C@H]1O", "Result Number": 3.12}

Values from patent US5773421A
